Cited source: paper PMC4075192

molecular target: CYP2D6 (Homo sapiens, UniProt P10635); assay: Inhibition of CYP2D6; assay type: in vitro ADME; details: pooled human liver microsomes, pH 7.4, probe dextromethorphan (O-demethylation)
Sequence (P10635 whole entry): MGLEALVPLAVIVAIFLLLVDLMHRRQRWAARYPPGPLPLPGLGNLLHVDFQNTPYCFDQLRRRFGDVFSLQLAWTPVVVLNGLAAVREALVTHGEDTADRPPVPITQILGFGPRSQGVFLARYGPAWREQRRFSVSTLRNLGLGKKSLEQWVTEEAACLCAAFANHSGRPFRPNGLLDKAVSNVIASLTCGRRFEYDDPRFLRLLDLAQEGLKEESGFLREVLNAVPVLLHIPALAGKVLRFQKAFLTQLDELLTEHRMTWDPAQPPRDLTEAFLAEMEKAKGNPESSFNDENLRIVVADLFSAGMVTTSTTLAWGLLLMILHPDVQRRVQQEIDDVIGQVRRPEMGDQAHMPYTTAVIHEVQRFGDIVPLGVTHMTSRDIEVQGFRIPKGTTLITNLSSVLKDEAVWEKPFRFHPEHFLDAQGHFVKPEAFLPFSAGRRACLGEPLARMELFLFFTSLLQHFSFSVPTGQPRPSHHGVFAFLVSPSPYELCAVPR
Readout Kind: inhibition at 10 μM

In [3]: df
Out[3]:
                                smiles_data  observed_result
0  O=C1Nc2ccc(Cl)cc2[C@@](C#CC2CC2)(C(F)(F)F)O1            < 10%

---

target: CYP3A (Homo sapiens, UniProt P08684); experiment: Inhibition of CYP3A; type: in vitro ADME; settings: pooled human liver microsomes, pH 7.4, probe testosterone (6-β hydroxylation), 10 μM, inhibition of CYP3A activity, 50 μM efavirenz, pooled HLMs, 10 μM testosterone
Sequence (P08684 2-503): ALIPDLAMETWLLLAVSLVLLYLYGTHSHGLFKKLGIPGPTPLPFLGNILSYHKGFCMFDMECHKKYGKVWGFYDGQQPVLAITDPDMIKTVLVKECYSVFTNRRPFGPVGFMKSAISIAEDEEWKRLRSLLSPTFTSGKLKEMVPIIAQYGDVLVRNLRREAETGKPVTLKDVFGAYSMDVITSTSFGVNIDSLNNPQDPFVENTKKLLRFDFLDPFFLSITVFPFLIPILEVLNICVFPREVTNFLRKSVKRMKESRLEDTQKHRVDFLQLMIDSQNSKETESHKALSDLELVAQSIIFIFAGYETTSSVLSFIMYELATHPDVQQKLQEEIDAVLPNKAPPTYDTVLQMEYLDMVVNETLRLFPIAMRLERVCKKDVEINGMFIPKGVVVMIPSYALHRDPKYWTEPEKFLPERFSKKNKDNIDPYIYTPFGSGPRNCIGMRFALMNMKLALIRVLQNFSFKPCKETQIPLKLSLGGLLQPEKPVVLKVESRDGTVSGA
Readout Kind: inhibition at 50 μM

>>> df
                                   compound                         tested_target  observed_result
0  O=C1Nc2ccc(Cl)cc2[C@@](C#CC2CC2)(C(F)(F)F)O1 [efavirenz, Efavirenz]  CYP3A (Homo sapiens, UniProt P08684)            > 20%
